The reported numbers originate from patent US5736384A.

Parameter Relative Activity(%) XP2: see the listing below.
- System: XP2
- assayProtocol: Effects of metal salts on enzyme activity of XP2
- Assay type: biochemical, Bacillus sp. 2113
- conditionDetails: metal salt 1 mM, 4° C. overnight, also 1 mM in reaction mixture; None = 100
- Procedure: Various metal salts were added to each of the enzyme solutions to a concentration of 1 mM and retained at 4° C. overnight. Then, a metal salt of the same kind was also added to a reaction mixture to a concentration of 1 mM, and the enzyme activities of XP1 and XP2 were determined.

molecule	Relative Activity(%) XP2
[Cl-].[Li+] [LiCl]	99%
O=S(=O)([O-])[O-].[Fe+2] [FeSO4]	99%
[Cl-].[Cl-].[Mg+2] [MgCl2]	103%
[Cl-].[Cl-].[Co+2] [CoCl2]	70%
[Ba+2].[Cl-].[Cl-] [BaCl2]	108%
[Cl][Ni][Cl] [NiCl2]	93%
[Cl][Mn][Cl] [MnCl2]	74%
[Cl][Al]([Cl])[Cl] [AlCl3]	100%
[Cl][Cu][Cl] [CuCl2]	68%
[Cl-].[Rb+] [RbCl]	98%
[Cl][Hg][Cl] [HgCl2]	0%
[Ca+2].[Cl-].[Cl-] [CaCl2]	98%
